For each of the molecules below, state its pKi.
Experimental system: Histamine H4 receptor (Homo sapiens)
Sequence (Q9H3N8 whole entry): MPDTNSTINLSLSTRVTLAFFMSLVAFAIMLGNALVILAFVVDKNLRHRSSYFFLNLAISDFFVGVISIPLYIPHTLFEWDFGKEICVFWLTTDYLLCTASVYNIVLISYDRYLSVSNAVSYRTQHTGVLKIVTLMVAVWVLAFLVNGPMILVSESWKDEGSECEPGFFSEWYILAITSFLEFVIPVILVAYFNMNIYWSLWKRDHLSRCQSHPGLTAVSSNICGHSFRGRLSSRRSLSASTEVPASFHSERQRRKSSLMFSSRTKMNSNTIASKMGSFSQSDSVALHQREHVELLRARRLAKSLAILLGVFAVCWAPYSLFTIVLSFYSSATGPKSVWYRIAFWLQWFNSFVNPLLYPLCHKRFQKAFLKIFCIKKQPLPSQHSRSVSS
On this scale, pKi is minus log10 of a concentration expressed in M (mol/L).

input: Which pKi is reported for this molecule? CN[C@H]1CCN(c2nc(N)nc3c2oc2ccccc23)C1
output: 8.47

input: One more molecule: CN[C@H]1CCN(c2nc(N)nc3c2oc2ccc(C(C)(F)F)cc23)C1
output: 9.00

input: Again, but for CN[C@H]1CCN(c2nc(N)nc3c2CCC3)C1
output: 6.80

input: Same for CN[C@H]1CCN(c2nc(N)nc(C)c2C)C1
output: 6.45

These data points were gathered from ChEMBL document CHEMBL3817740.
